The following compounds are shown together with reported Injury (0-10) values.
Test system: soybean (Var. Clark)
assay-protocol: greenhouse growth regulator test on soybean (Table I)
Type: in vivo
measurement-context: 1/2 lbs/acre; 0-10 scale; 0 = no effect, 10 = complete kill; two weeks after application
assay-endpoint: Injury (0-10)

1) Cl.Clc1cc(Cl)cc(N=CNc2cc(Cl)cc(Cl)c2)c1 = 2
2) Clc1cc(Cl)cc(N=Cc2ccccc2)c1 = 0
3) Clc1cc(Cl)cc(N=CNc2cc(Cl)cc(Cl)c2)c1 [XIV, N,N'-Bis[3,5-dichlorophenyl]formamidine] = 3
4) Clc1cccc(C=Nc2cc(Cl)cc(Cl)c2)c1 = 1
5) Clc1ccc(N=Cc2ccccc2)cc1Cl = 0
6) Clc1cc(Cl)cc(NCNc2cc(Cl)cc(Cl)c2)c1 = 0
7) Clc1cc(Cl)cc(N=Cc2ccccc2Cl)c1 = 0
8) Clc1ccc(C=Nc2cc(Cl)cc(Cl)c2)cc1 = 0
9) CCOC=Nc1ccc(Cl)c(Cl)c1 [XVII, ethyl N-(3,4-dichlorophenyl)formimidate] = 1
10) Clc1ccc(N=CNc2ccc(Cl)c(Cl)c2)cc1Cl [XV, n,n'-bis[3,4-dichlorophenyl]formamidine] = 2

---

The following compounds are shown together with reported No. Laterals per plant values.
System: soybean (Var. Clark)
assay-protocol: greenhouse growth regulator test on soybean (Table I)
Assay type: in vivo
measurement-context: 1/4 lbs/acre foliar spray, two weeks after application
assay-endpoint: No. Laterals per plant

1) Clc1ccc(N=Cc2ccccc2Cl)cc1Cl = 0
2) Clc1cccc(C=Nc2ccc(Cl)c(Cl)c2)c1 = 1
3) Clc1ccc(C=Nc2cc(Cl)cc(Cl)c2)cc1 = 2
4) Clc1cc(Cl)cc(N=CNc2cc(Cl)cc(Cl)c2)c1 [XIV, N,N'-Bis[3,5-dichlorophenyl]formamidine] = 1
5) Clc1cc(Cl)cc(NCNc2cc(Cl)cc(Cl)c2)c1 = 1
6) Cl.Clc1cc(Cl)cc(N=CNc2cc(Cl)cc(Cl)c2)c1 = 2
7) O=CNc1ccc(Cl)c(Cl)c1 [XIX, 3',4'-dichloroformanilide] = 5
8) CCOC=Nc1cc(Cl)cc(Cl)c1 [XVI, Ethyl N-(3,5-dichlorophenyl)formimidate] = 2
9) Clc1ccc(N=Cc2c(Cl)cccc2Cl)cc1Cl = 1
10) Clc1cccc(C=Nc2cc(Cl)cc(Cl)c2)c1 = 2
11) Clc1cc(Cl)cc(N=Cc2c(Cl)cccc2Cl)c1 = 0
12) O=CNc1cc(Cl)cc(Cl)c1 [XVIII, 3',5'-dichloroformanilide] = 4
13) Clc1cc(Cl)cc(N=Cc2ccccc2)c1 = 3
14) CCOC(CC)=Nc1cc(Cl)cc(Cl)c1 = 1
15) Clc1ccc(N=Cc2ccccc2)cc1Cl = 2
16) CCOC=Nc1ccc(Cl)c(Cl)c1 [XVII, ethyl N-(3,4-dichlorophenyl)formimidate] = 2
17) Clc1ccc(N=CNc2ccc(Cl)c(Cl)c2)cc1Cl [XV, n,n'-bis[3,4-dichlorophenyl]formamidine] = 2
18) Clc1cc(Cl)cc(N=Cc2ccccc2Cl)c1 = 2
19) Clc1ccc(C=Nc2ccc(Cl)c(Cl)c2)cc1 = 1
20) Clc1ccc(NCNc2ccc(Cl)c(Cl)c2)cc1Cl = 2
21) Brc1cc(Br)cc(NCNc2cc(Br)cc(Br)c2)c1 = 0

---

System: soybean (Var. Clark)
assay-protocol: greenhouse growth regulator test on soybean (Table I)
Type: in vivo
measurement-context: 1/4 lbs/acre; 0-10 scale; 0 = no effect, 10 = complete kill; two weeks after application
Text: Limited greenhouse experiments shown that there is promotion of lateral bud growth when compounds are applied at higher concentrations and earlier timings and an increase in soybean pod numbers at lower rates applied just prior to or at the flowering stage. […] Three parameters are reported in Table I to indicate the general spectrum of activity for each evaluated compound including the propensity for releasing lateral bud growth in soybeans. […]
assay-endpoint: Injury (0-10)

1) CCOC=Nc1cc(Cl)cc(Cl)c1 [XVI, Ethyl N-(3,5-dichlorophenyl)formimidate] = 1
2) Clc1ccc(C=Nc2ccc(Cl)c(Cl)c2)cc1 = 0
3) Clc1ccc(C=Nc2cc(Cl)cc(Cl)c2)cc1 = 0
4) Cl.Clc1cc(Cl)cc(N=CNc2cc(Cl)cc(Cl)c2)c1 = 2
5) Brc1cc(Br)cc(NCNc2cc(Br)cc(Br)c2)c1 = 1

---

System: soybean (Var. Clark)
assay-protocol: greenhouse growth regulator test on soybean (Table I)
Assay type: in vivo
measurement-context: 1/2 lbs/acre; 0-10 scale; 0 = no effect, 10 = complete kill; two weeks after application
assay-endpoint: Injury (0-10)

1) Clc1cc(Cl)cc(N=Cc2c(Cl)cccc2Cl)c1 = 0
2) Clc1ccc(N=Cc2ccccc2Cl)cc1Cl = 0
3) O=CNc1cc(Cl)cc(Cl)c1 [XVIII, 3',5'-dichloroformanilide] = 1
4) Brc1cc(Br)cc(NCNc2cc(Br)cc(Br)c2)c1 = 1
5) CCOC=Nc1cc(Cl)cc(Cl)c1 [XVI, Ethyl N-(3,5-dichlorophenyl)formimidate] = 1

---

Tested on: soybean (Var. Clark)
assay-protocol: greenhouse growth regulator test on soybean (Table I)
Type: in vivo
measurement-context: Glycine max, foliar, 336 h, 1/2 lbs/acre foliar spray, two weeks after application, relative to control; read-out: Height (% inhib.)
The following compounds are shown together with reported pest or weed control values.
assay-endpoint: pest or weed control

1) Clc1cc(Cl)cc(N=Cc2c(Cl)cccc2Cl)c1 [VIII] = 7%
2) CCOC=Nc1cc(Cl)cc(Cl)c1 [XVI, Ethyl N-(3,5-dichlorophenyl)formimidate] = 2%
3) Clc1cc(Cl)cc(NCNc2cc(Cl)cc(Cl)c2)c1 [I] = 4%
4) Clc1cc(Cl)cc(N=Cc2ccccc2Cl)c1 [V] = 8%
5) Clc1ccc(NCNc2ccc(Cl)c(Cl)c2)cc1Cl [II] = 15%

---

Tested on: soybean (Var. Clark)
assay-protocol: effect of haloaniline derivatives on soybean yields at different rates and stages of growth (Table VIII)
Format: in vivo
measurement-context: 3rd treatment, 0.10 lbs./A
assay-endpoint: Seeds per Pod

1) Clc1cc(Cl)cc(NCNc2cc(Cl)cc(Cl)c2)c1 = 1.8
2) Clc1ccc(N=Cc2ccccc2)cc1Cl = 1.4
3) Clc1cc(Cl)cc(N=Cc2ccccc2)c1 = 2.2
4) O=CNc1cc(Cl)cc(Cl)c1 [XVIII, 3',5'-dichloroformanilide] = 1.6

---

System: soybean (Var. Clark)
assay-protocol: greenhouse growth regulator test on soybean (Table I)
Assay type: in vivo
measurement-context: Glycine max, foliar, 336 h, 1/2 lbs/acre foliar spray, two weeks after application, relative to control; read-out: Height (% inhib.)
From the text: Limited greenhouse experiments shown that there is promotion of lateral bud growth when compounds are applied at higher concentrations and earlier timings and an increase in soybean pod numbers at lower rates applied just prior to or at the flowering stage. […] Three parameters are reported in Table I to indicate the general spectrum of activity for each evaluated compound including the propensity for releasing lateral bud growth in soybeans. […]
The following compounds are shown together with reported pest or weed control values.
assay-endpoint: pest or weed control (%)

1. Clc1cccc(C=Nc2ccc(Cl)c(Cl)c2)c1 [X] = 14
2. Brc1cc(Br)cc(NCNc2cc(Br)cc(Br)c2)c1 [III] = 2
3. Clc1cc(Cl)cc(N=Cc2ccccc2)c1 [IV, 3,5-dichloro-N-benzylideneaniline] = 5
4. O=CNc1ccc(Cl)c(Cl)c1 [XIX, 3',4'-dichloroformanilide] = 0
5. Clc1ccc(N=Cc2ccccc2Cl)cc1Cl [IX] = 23
6. Clc1cccc(C=Nc2cc(Cl)cc(Cl)c2)c1 [VI] = 21

---

Test system: soybean (Var. Clark)
assay-protocol: greenhouse growth regulator test on soybean (Table I)
Format: in vivo
measurement-context: 1/4 lbs/acre; 0-10 scale; 0 = no effect, 10 = complete kill; two weeks after application
assay-endpoint: Injury (0-10)

1. Clc1ccc(N=Cc2c(Cl)cccc2Cl)cc1Cl = 1
2. O=CNc1ccc(Cl)c(Cl)c1 [XIX, 3',4'-dichloroformanilide] = 1
3. CCOC=Nc1ccc(Cl)c(Cl)c1 [XVII, ethyl N-(3,4-dichlorophenyl)formimidate] = 2
4. O=CNc1cc(Cl)cc(Cl)c1 [XVIII, 3',5'-dichloroformanilide] = 0
5. Clc1ccc(N=CNc2ccc(Cl)c(Cl)c2)cc1Cl [XV, n,n'-bis[3,4-dichlorophenyl]formamidine] = 2
6. Clc1cc(Cl)cc(N=Cc2c(Cl)cccc2Cl)c1 = 0
7. Clc1cc(Cl)cc(N=CNc2cc(Cl)cc(Cl)c2)c1 [XIV, N,N'-Bis[3,5-dichlorophenyl]formamidine] = 2
8. CCOC(CC)=Nc1cc(Cl)cc(Cl)c1 = 2
9. Clc1ccc(N=Cc2ccccc2)cc1Cl = 1
10. Clc1cccc(C=Nc2cc(Cl)cc(Cl)c2)c1 = 2
11. Clc1cc(Cl)cc(NCNc2cc(Cl)cc(Cl)c2)c1 = 0
12. Clc1cc(Cl)cc(N=Cc2ccccc2)c1 = 0
13. Clc1cccc(C=Nc2ccc(Cl)c(Cl)c2)c1 = 0
14. Clc1ccc(N=Cc2ccccc2Cl)cc1Cl = 0
15. Clc1ccc(NCNc2ccc(Cl)c(Cl)c2)cc1Cl = 3
16. Clc1cc(Cl)cc(N=Cc2ccccc2Cl)c1 = 0
